tested on: Enterococcus faecalis (ATCC 29212); assay: MIC susceptibility test, microdilution with MTT readout; format: cell-based; details: Enterococcus faecalis ATCC29212; read-out: MIC EF
Endpoint label: MIC (µg/mL)
Report only the number, with the unit µg/mL understood.

Consider the worked cases shown below.
CN[C@@H](CC(C)C)C(=O)N[C@H]1C(=O)N[C@@H](CC(N)=O)C(=O)N[C@H]2C(=O)NC3C(=O)N[C@H](C(=O)N[C@@H](C(=O)O)c4cc(O)cc(O)c4-c4cc3ccc4O)[C@H](O)c3ccc(c(Cl)c3)Oc3cc2cc(c3OC2OC(COS(=O)(=O)c3c(C)cc(C)cc3C)C(O)C(O)C2OC2CC(C)(NCc3ccc(-c4ccc(Cl)cc4)cc3)C(O)C(C)O2)Oc2ccc(cc2Cl)[C@H]1O (stereo partly drawn) = 1
C=C1N[C@@H]2C(=O)N[C@@H](C(=O)O)c3cc(O)cc(O)c3-c3cc(ccc3O)C1NC(=O)[C@@H]1NC(=O)[C@H](CC(N)=O)NC(=O)[C@H](NC(=O)[C@H](CC(C)C)NC)[C@H](O)c3ccc(c(Cl)c3)Oc3cc1cc(c3OC1OC(CSc3nc(-c4ccccc4)c(-c4ccccc4)o3)C(O)C(O)C1OC1CC(C)(N)C(O)C(C)O1)Oc1ccc(cc1Cl)[C@H]2O (stereo partly drawn) = 0.24
CN[C@@H](CC(C)C)C(=O)N[C@H]1C(=O)N[C@@H](CC(N)=O)C(=O)N[C@H]2C(=O)NC3C(=O)N[C@H](C(=O)N[C@@H](C(=O)O)c4cc(O)cc(O)c4-c4cc3ccc4O)[C@H](O)c3ccc(c(Cl)c3)Oc3cc2cc(c3OC2OC(CNC(=O)C(F)(F)F)C(O)C(O)C2OC2CC(C)(N)C(O)C(C)O2)Oc2ccc(cc2Cl)[C@H]1O (stereo partly drawn) [XL, Glucose-C6-trifluoroacetamide Vancomycin] = 1.3
CN[C@@H](CC(C)C)C(=O)N[C@H]1C(=O)N[C@@H](CC(N)=O)C(=O)N[C@H]2C(=O)NC3C(=O)N[C@H](C(=O)N[C@@H](C(=O)O)c4cc(O)cc(O)c4-c4cc3ccc4O)[C@H](O)c3ccc(c(Cl)c3)Oc3cc2cc(c3OC2OC(CSc3nnnn3-c3ccc(O)cc3)C(O)C(O)C2OC2CC(C)(N)C(O)C(C)O2)Oc2ccc(cc2Cl)[C@H]1O (stereo partly drawn) = 2.5
CN[C@H](CC(C)C)C(=O)N[C@H]1C(=O)N[C@@H](CC(N)=O)C(=O)N[C@H]2C(=O)N[C@H]3C(=O)N[C@H](C(=O)N[C@H](C(=O)O)c4cc(O)cc(O)c4-c4cc3ccc4O)[C@H](O)c3ccc(c(Cl)c3)Oc3cc2cc(c3OC2OC(CSc3nc(N)n[nH]3)C(O)C(O)C2OC2CC(C)(NCc3ccc(-c4ccc(Cl)cc4)cc3)C(O)C(C)O2)Oc2ccc(cc2Cl)[C@H]1O (stereo partly drawn) = 0.16

Then there is this molecule:
q: API: value(readout= MIC, system= Enterococcus faecalis (ATCC 29212), query= CN[C@@H](CC(C)C)C(=O)N[C@H]1C(=O)N[C@@H](CC(N)=O)C(=O)N[C@H]2C(=O)NC3C(=O)N[C@H](C(=O)N[C@@H](C(=O)O)c4cc(O)cc(O)c4-c4cc3ccc4O)[C@H](O)c3ccc(c(Cl)c3)Oc3cc2cc(c3OC2OC(CSc3nnc(NN)n3N)C(O)C(O)C2OC2CC(C)(NCc3ccc(-c4ccc(Cl)cc4)cc3)C(O)C(C)O2)Oc2ccc(cc2Cl)[C@H]1O (stereo partly drawn) )
a: 0.12
